Target: T1, ZFP SBS#1201 (synthetic)
T1 chain: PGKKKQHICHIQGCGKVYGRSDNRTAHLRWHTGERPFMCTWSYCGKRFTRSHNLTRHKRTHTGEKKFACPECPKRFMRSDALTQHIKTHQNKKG
Experiment: EMSA
Details: tags: MBP fusion
pKd: −log10 of the molar value.

{"columns": ["binder", "pKd"],
 "data": [
  ["ATGGAGAAG (dsDNA) DNA 1: ATGGAGAAG DNA 2: CTTCTCCAT", 7.83]
]}
